This collection of values is drawn from the supplement of paper PMC10567573.

B1: PTPN9 (parent)
chain: NKWTVQYNVSPLSWNVAVKFLMAR

Variants of: B1
Experiment: protein stability index of a GFP-peptide fusion (GPS, HEK-293T) (PSI 1-6); higher = more stable;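 note: lentivirally expressed fusions sorted by FACS into six bins by GFP to DsRed ratio, PSI derived from sequencing read proportions per bin multiplied by bin number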
Conditions: c terminus: a fixed tail appended
Everything with protein stability index lower than 2 is label 0; everything else, including exactly 2, is label 1.

Field: example entries. Status: answers known.
{"columns": ["mutant label", "discrete label"],
 "data": [
  ["K19T", "label 1"],
  ["W3G", "label 0"],
  ["Y7T", "label 0"],
  ["Y7K", "label 1"],
  ["L12P", "label 0"]
]}

Req: protein stability index >= 2 for "W14R" ?
Resp: label 1

Req: Textbook exercise: given the entry "V18S" , state whether its protein stability index is greater than or equal to 2.
Resp: label 1

Req: Tell me whether protein stability index is at least 2 here: "V16R"
Resp: label 1

Req: Record "V16Q" ; criterion: protein stability index no lower than 2. Met?
Resp: label 0

Req: For this variant, is measured protein stability index 2 or higher? "M22T"
Resp: label 1

Req: Could you please find out whether "A17M" has protein stability index that meets 2 or exceeds it?
Resp: label 1

Req: In plain terms: is recorded protein stability index at least 2 for "F20A" ?
Resp: label 1

Req: Could you please find out whether "R24W" has protein stability index that meets 2 or exceeds it?
Resp: label 1

Req: Could you please find out whether "K19C" has protein stability index that meets 2 or exceeds it?
Resp: label 1
